T/C for assorted compounds
# Test system: P388 leukemia ip, CD2F1 mice, survival T/C
# Test: NCI In Vivo Anticancer Drug Screen. Data for tumor model P388 Leukemia (intraperitoneal) in CD2F1 (CDF1) mice
# Measurement conditions: endpoint: median survival time; dose: 200.0 mg/kg/injection; schedule: Q01DX009 (ip); vehicle: suspension in saline; higher = longer survival
# Experimental: The antitumor activity of compounds was measured in mice bearing transplantable tumors. Survival or tumor size were measured and the results are expressed as the measurement made in the treated group (T) divided by the measurement made in the vehicle treated control group (C). The tumor model used in this assay is P388 Leukemia (intraperitoneal) in CD2F1 (CDF1) mice
Inconclusive results and toxic doses are left out.

{"Compound": "COc1ccc(CSC(=S)Nc2ccc(SC)c(Cl)c2)cc1", "Target desc": "P388 leukemia ip, CD2F1 mice, survival T/C", "T/C": "98 % of control"}
{"Compound": "N#CC(c1ccccc1)C1NC(C(=O)O)CS1 (centres undefined)", "Target desc": "P388 leukemia ip, CD2F1 mice, survival T/C", "T/C": "93 % of control"}
{"Compound": "NC(C(=O)O)C(CC(=O)O)c1ccccc1 (centres undefined)", "Target desc": "P388 leukemia ip, CD2F1 mice, survival T/C", "T/C": "88 % of control"}
{"Compound": "Cc1ccc(NC(=S)SCc2ccc(Cl)c(Cl)c2)cc1Cl", "Target desc": "P388 leukemia ip, CD2F1 mice, survival T/C", "T/C": "116 % of control"}

---

# System: P388 leukemia ip, CD2F1 mice, survival T/C
# Test: NCI In Vivo Anticancer Drug Screen. Data for tumor model P388 Leukemia (intraperitoneal) in CD2F1 (CDF1) mice
# Measurement conditions: endpoint: median survival time; dose: 400.0 mg/kg/injection; schedule: Q04DX003 (ip); vehicle: saline with Tween-80; higher = longer survival
Inconclusive results and toxic doses are left out.

{"Compound": "CCOc1ccccc1C(=O)Nc1ccc(Br)cc1", "Target desc": "P388 leukemia ip, CD2F1 mice, survival T/C", "T/C": "95 % of control"}
{"Compound": "Cc1cc2c3ccccc3[nH]c(=O)n2n1", "Target desc": "P388 leukemia ip, CD2F1 mice, survival T/C", "T/C": "100 % of control"}
{"Compound": "CCNNC(=O)[C@@H]1[C@H](c2cc(OC)c(OC)c(OC)c2)c2cc3c(cc2[C@H](O)[C@H]1CO)OCO3", "Target desc": "P388 leukemia ip, CD2F1 mice, survival T/C", "T/C": "104 % of control"}
{"Compound": "CC1(C)CCC2=C1CC[C@H]1[C@H]2CCC2=CC(=O)CC[C@@]21C", "Target desc": "P388 leukemia ip, CD2F1 mice, survival T/C", "T/C": "115 % of control"}
{"Compound": "Cc1noc(N)c1-n1c(C)ccc1C", "Target desc": "P388 leukemia ip, CD2F1 mice, survival T/C", "T/C": "100 % of control"}
{"Compound": "CC(C)SC(=O)C[Si](C)(C)C", "Target desc": "P388 leukemia ip, CD2F1 mice, survival T/C", "T/C": "98 % of control"}
{"Compound": "Cc1cc(Cl)c(C)cc1Cl", "Target desc": "P388 leukemia ip, CD2F1 mice, survival T/C", "T/C": "110 % of control"}
{"Compound": "O=S(CF)c1ccc(Cl)cc1 (centres undefined)", "Target desc": "P388 leukemia ip, CD2F1 mice, survival T/C", "T/C": "107 % of control"}
{"Compound": "Cc1c2cc(Cl)c3ccccc3c2c[n+]2ccccc12", "Target desc": "P388 leukemia ip, CD2F1 mice, survival T/C", "T/C": "108 % of control"}
{"Compound": "CCOP(=O)(N(CCCl)CCCl)N1CCc2ccccc2C1 (centres undefined)", "Target desc": "P388 leukemia ip, CD2F1 mice, survival T/C", "T/C": "119 % of control"}
{"Compound": "CCOC(=O)NC(C)(C)CN(C(=O)OCC)c1ccccc1", "Target desc": "P388 leukemia ip, CD2F1 mice, survival T/C", "T/C": "104 % of control"}
{"Compound": "O=C(CC(=O)c1ccccc1F)Nc1ccc([N+](=O)[O-])cc1", "Target desc": "P388 leukemia ip, CD2F1 mice, survival T/C", "T/C": "100 % of control"}
{"Compound": "C(#Cc1c2ccccc2c(C#Cc2ccccc2)c2c1oc1c3ccccc3ccc12)c1ccccc1", "Target desc": "P388 leukemia ip, CD2F1 mice, survival T/C", "T/C": "92 % of control"}
{"Compound": "S=C([S-])N[N-]c1ccccc1.S=C([S-])N[N-]c1ccccc1.[Ni]", "Target desc": "P388 leukemia ip, CD2F1 mice, survival T/C", "T/C": "100 % of control"}
{"Compound": "COc1ccc(CSCc2c(CSCc3ccc(OC)c(OC)c3)c(CSCc3ccc(OC)c(OC)c3)c(CSCc3ccc(OC)c(OC)c3)c(CSCc3ccc(OC)c(OC)c3)c2CSCc2ccc(OC)c(OC)c2)cc1OC", "Target desc": "P388 leukemia ip, CD2F1 mice, survival T/C", "T/C": "102 % of control"}
{"Compound": "N#CCCN(CCc1ccccn1)C(=S)Nc1cccc(C(F)(F)F)c1", "Target desc": "P388 leukemia ip, CD2F1 mice, survival T/C", "T/C": "101 % of control"}
{"Compound": "CCOc1ccc(/C=N/NS(=O)(=O)c2ccccc2)cc1OC", "Target desc": "P388 leukemia ip, CD2F1 mice, survival T/C", "T/C": "100 % of control"}
{"Compound": "CC(C)(c1cc(Cl)c(OCCO)c(Cl)c1)c1cc(Cl)c(OCCO)c(Cl)c1", "Target desc": "P388 leukemia ip, CD2F1 mice, survival T/C", "T/C": "95 % of control"}
{"Compound": "COc1cc2c(cc1OC)C(CS(C)=O)Cc1cc(OC)c(OC)cc1N(C)CCC2 (centres undefined)", "Target desc": "P388 leukemia ip, CD2F1 mice, survival T/C", "T/C": "100 % of control"}
